- MEASUREMENT_DESCRIPTION: Assay for cytotoxicity (cell growth, Coulter Counter)
- Assay type: cell-based
- CONDITION_DESCRIPTION: human; HEL cells; 3 days incubation; cell growth inhibited by 50%; read-out: Cytotoxicity CC₅₀

COMPOUND	CC50 at 72 h
Nc1ncnc2c1ncn2[C@@H]1O[C@H](COC2(c3ccccc3)c3ccccc3Oc3ccccc32)[C@@H](OC2(c3ccccc3)c3ccccc3Oc3ccccc32)[C@H]1OC1CCCCO1 (stereo partly shown)	> 50 µg/mL
